All values here come from the OPERA property sets (Mansouri et al. 2018).

Documented log10 solubility across a set of compounds
conditions: 25 °C
Remember, log10 of solubility, in µM.

The cases that follow already have their log10 solubility on record.
INSERT INTO measurements (compound, endpoint_name, observed) VALUES
  ('CN(C)c1nc(=O)n(C2CCCCC2)c(=O)n1C', 'log10 solubility', 5.12),
  ('CC(C)(COCc1cccc(Oc2ccccc2)c1)c1ccc(OC(F)(F)Br)cc1', 'log10 solubility', -3.98),
  ('CCCCN(CC)c1c([N+](=O)[O-])cc(C(F)(F)F)cc1[N+](=O)[O-]', 'log10 solubility', -0.53),
  ('O=C(NC(=O)c1c(F)cccc1F)Nc1ccc(OC(F)(F)C(F)OC(F)(F)F)c(Cl)c1 (stereo unspecified)', 'log10 solubility', -0.97),
  ('CCCCCC(C)OC(=O)COc1ccc(Cl)c2cccnc12 (stereo unspecified)', 'log10 solubility', 0.25);

Now for a further compound.
Task: Query: log10 solubility; subject: CC1=NNC(=O)N(/N=C/c2cccnc2)C1
Output: 3.13
